Data origin: the Immune Epitope Database (IEDB)

study target: HLA-C*04:01
experimental details: IEDB peptide-MHC binding, purified MHC/direct/fluorescence; filed as Kd, often an IC50 or EC50 that approximates it; bounds were set here for any values at or beyond the usual limits of such assays
condition info: source organism: Entamoeba dispar SAW760
pKd: −log10 of the molar value.
readout label: pKd

> print(dat)
   residue.sequence  study.target  obs.value
1         YYSNKVFPI   HLA-C*04:01     ≤ 4.70

---

study target: HLA-B*58:01
experimental details: IEDB peptide-MHC binding, purified MHC/direct/fluorescence; filed as Kd, often an IC50 or EC50 that approximates it; bounds were set here for any values at or beyond the usual limits of such assays
condition info: source organism: Escherichia coli O157:H7
pKd: −log10 of the molar value.
Documented pKd across a set of sequences
readout label: pKd

> print(dat)
   residue.sequence  relation.qualifier  obs.value
1         ITAGYNRYY                   =       5.39
2         LLKLWIDKV                   ≤       4.70
3         ETWVETWAF                   =       5.52

---

study target: HLA-B*46:01
experimental details: IEDB peptide-MHC binding, purified MHC/direct/fluorescence; filed as Kd, often an IC50 or EC50 that approximates it; bounds were set here for any values at or beyond the usual limits of such assays
condition info: source organism: Mycobacterium tuberculosis
pKd: −log10 of the molar value.
readout label: pKd

> print(dat)
   residue.sequence  obs.value
1         KPARGGSSI     ≤ 4.70

---

study target: HLA-C*03:03
experimental details: IEDB peptide-MHC binding, purified MHC/direct/fluorescence; filed as Kd, often an IC50 or EC50 that approximates it; bounds were set here for any values at or beyond the usual limits of such assays
condition info: source organism: Bacillus anthracis str. A2012
readout label: Kd

> print(dat)
   residue.sequence  readout.label  obs.value
1         FFSPVIASL             Kd     ≤ 1 nM

---

study target: HLA-B*18:01
experimental details: IEDB peptide-MHC binding, purified MHC/competitive/fluorescence; filed as Kd, often an IC50 or EC50 that approximates it; bounds were set here for any values at or beyond the usual limits of such assays
condition info: source organism: Human immunodeficiency virus 1
readout label: Kd

> print(dat)
   residue.sequence  readout.label  obs.value
1       KSLYNTVATLY             Kd    ≥ 20 µM

---

study target: HLA-B*58:01
experimental details: IEDB peptide-MHC binding, purified MHC/direct/fluorescence; filed as Kd, often an IC50 or EC50 that approximates it; bounds were set here for any values at or beyond the usual limits of such assays
condition info: source organism: Mammarenavirus juninense
readout label: Kd

> print(dat)
   residue.sequence  readout.label  obs.value
1         FRRVAHSSL             Kd    ≥ 20 µM

---

study target: HLA-A*02:01
experimental details: IEDB peptide-MHC binding, purified MHC/direct/fluorescence; filed as Kd, often an IC50 or EC50 that approximates it; bounds were set here for any values at or beyond the usual limits of such assays
condition info: source organism: Influenza A virus (A/swine/Korea/S190/2004(H9N2))
readout label: Kd

> print(dat)
   residue.sequence  readout.label  obs.value
1         IPKRNRSIL             Kd    ≥ 20 µM

---

study target: HLA-B*18:01
experimental details: IEDB peptide-MHC binding, purified MHC/direct/fluorescence; filed as Kd, often an IC50 or EC50 that approximates it; bounds were set here for any values at or beyond the usual limits of such assays
condition info: source organism: Dengue virus
readout label: Kd (nM)

> print(dat)
   residue.sequence  obs.value
1         QEGAMHTAL       39.5

---

Documented Kd across a set of sequences
study target: HLA-B*15:01
experimental details: IEDB peptide-MHC binding, purified MHC/direct/fluorescence; filed as Kd, often an IC50 or EC50 that approximates it; bounds were set here for any values at or beyond the usual limits of such assays
condition info: source organism: SARS-CoV1
readout label: Kd (µM)

> print(dat)
   residue.sequence  obs.value
1         FPREGVFVF       2.14
2         IQQLPETYF      0.188
3         RLYYDSMSY       0.13

---

study target: HLA-A*11:01
experimental details: IEDB peptide-MHC binding, purified MHC/direct/fluorescence; filed as Kd, often an IC50 or EC50 that approximates it; bounds were set here for any values at or beyond the usual limits of such assays
condition info: source organism: Influenza A virus (A/duck/Hokkaido/1130/01(H1N1))
pKd: −log10 of the molar value.
readout label: pKd

> print(dat)
   residue.sequence  obs.value
1         ELRSRYWAI     ≤ 4.70

---

study target: HLA-C*14:02
experimental details: IEDB peptide-MHC binding, purified MHC/competitive/fluorescence; filed as Kd, often an IC50 or EC50 that approximates it; bounds were set here for any values at or beyond the usual limits of such assays
condition info: source organism: Yersinia pestis Nepal516
readout label: Kd

> print(dat)
   residue.sequence  readout.label  obs.value
1         FYFNWNTPI             Kd   ≤ 0.1 nM

---

study target: HLA-B*15:01
experimental details: IEDB peptide-MHC binding, purified MHC/direct/fluorescence; filed as Kd, often an IC50 or EC50 that approximates it; bounds were set here for any values at or beyond the usual limits of such assays
condition info: source organism: Mycobacterium tuberculosis F11
readout label: Kd (µM)

> print(dat)
   residue.sequence  obs.value
1         AISAQVAAY       1.27

---

study target: HLA-A*11:01
experimental details: IEDB peptide-MHC binding, purified MHC/direct/fluorescence; filed as Kd, often an IC50 or EC50 that approximates it; bounds were set here for any values at or beyond the usual limits of such assays
condition info: source organism: Marburg virus - Musoke, Kenya, 1980
Documented Kd across a set of sequences
readout label: Kd

> print(dat)
   residue.sequence  readout.label  obs.value
1         NQECWDSVF             Kd    ≥ 20 µM
2         KRLLLKLDF             Kd    ≥ 20 µM

---

study target: HLA-B*15:02
experimental details: IEDB peptide-MHC binding, purified MHC/competitive/fluorescence; filed as Kd, often an IC50 or EC50 that approximates it; bounds were set here for any values at or beyond the usual limits of such assays
condition info: source organism: Orientia tsutsugamushi str. Ikeda
readout label: Kd (nM)

> print(dat)
   residue.sequence  obs.value
1         NMQESSKSF       64.3

---

study target: HLA-A*26:01
experimental details: IEDB peptide-MHC binding, purified MHC/competitive/fluorescence; filed as Kd, often an IC50 or EC50 that approximates it; bounds were set here for any values at or beyond the usual limits of such assays
condition info: source organism: Vaccinia virus WR
pKd: −log10 of the molar value.
readout label: pKd

> print(dat)
   residue.sequence  obs.value
1         IQFMHEQGY     ≤ 4.70

---

study target: HLA-A*03:01
experimental details: IEDB peptide-MHC binding, purified MHC/direct/fluorescence; filed as Kd, often an IC50 or EC50 that approximates it; bounds were set here for any values at or beyond the usual limits of such assays
condition info: source organism: Influenza A virus (A/Viet Nam/HN/2004(H5N1))
pKd: −log10 of the molar value.
readout label: pKd

> print(dat)
   residue.sequence  readout.label  obs.value
1         FRNQVKIRR            pKd     ≤ 4.70

---

study target: HLA-A*30:01
experimental details: IEDB peptide-MHC binding, purified MHC/competitive/radioactivity; filed as Kd, often an IC50 or EC50 that approximates it; bounds were set here for any values at or beyond the usual limits of such assays
condition info: source organism: Lymphocytic choriomeningitis virus (strain Armstrong)
readout label: Kd (nM)

> print(dat)
   residue.sequence  readout.label  obs.value
1         KVNTTIARY             Kd        934

---

study target: HLA-B*15:09
experimental details: IEDB peptide-MHC binding, purified MHC/direct/fluorescence; filed as Kd, often an IC50 or EC50 that approximates it; bounds were set here for any values at or beyond the usual limits of such assays
condition info: source organism: Yersinia pestis CA88-4125
readout label: Kd

> print(dat)
   residue.sequence  readout.label  obs.value
1         YRYEFNNDW             Kd    ≥ 20 µM

---

study target: HLA-B*51:01
experimental details: IEDB peptide-MHC binding, purified MHC/competitive/fluorescence; bounds were set here for any values at or beyond the usual limits of such assays
condition info: source organism: Monodelphis domestica
readout label: IC50

> print(dat)
   residue.sequence  obs.value
1       FLLPILSQIYT    ≥ 20 µM
